Parameter: cytotoxicity at 10 µM. Scope: all listed entries.
Experiment: Toxicity liver stage against HepG2, at 10uM
Assay type: cell-based
Parameters: test concentration 10 uM, cell line HepG2-A16-CD81EGFP
Conditions: human, HepG2-A16-CD81EGFP cells; read-out: INHIBITION
Write the value in % as a bare number.

Below are worked cases with known answers.
[[record]]
compound = "COc1cc(F)ccc1N(C)Cc1ccncc1"
unit_symbol = "%"
recorded_measurement = -3.64

[[record]]
compound = "CCc1nnc(N2C[C@@H](NC(C)=O)[C@H](c3ccc(C)o3)C2)s1"
unit_symbol = "%"
recorded_measurement = -54.5

[[record]]
compound = "CCn1cnnc1CNC(=O)NCC(C(C)C)N1CCC(C)CC1 (centres undefined)"
unit_symbol = "%"
recorded_measurement = -4.65

[[record]]
compound = "Cc1n[nH]c(C2CN(C(=O)CCc3cscn3)CCO2)n1 (centres undefined)"
unit_symbol = "%"
recorded_measurement = -4.34

[[record]]
compound = "CN(Cc1cc(-c2cccnc2)no1)C(=O)[C@@H]1CSCN1C"
unit_symbol = "%"
recorded_measurement = 0.66

[[record]]
compound = "O=C(NCc1ccco1)[C@H]1C[C@H]2OCC[C@H]2N(C(=O)c2ccncc2)C1"
unit_symbol = "%"
recorded_measurement = -5.34

[[record]]
compound = "CCn1cc(NC(=O)c2c(C)nn(C)c2C)c(C(N)=O)n1"
unit_symbol = "%"
recorded_measurement = 0.946

[[record]]
compound = "O=C(CCn1ccnc1)N1CCC(c2nnc(-c3ccccn3)o2)CC1"
unit_symbol = "%"
recorded_measurement = 3.29


Value lookup for cytotoxicity at 10 µM; key = CCC(Cn1ccc2[nH]c(=O)c(C#N)cc2c1=O)OC (centres undefined) 2.33

I'd like to know its cytotoxicity at 10 µM. The compound in question is COc1cccc(-c2ncc(CN3CCOCC(O)C3)s2)c1 (centres undefined) -7.19

Suppose we examine the compound `Cc1nsc(C(=O)NCCCc2ccccc2)n1` ; what cytotoxicity at 10 µM value has been reported? -0.449

Form field: reported cytotoxicity at 10 µM of CC(C)(CN1CCC(Cc2ccc(C(=O)O)cc2)C1)N1CCOCC1 (centres undefined) 2.17

Find the recorded cytotoxicity at 10 µM belonging to NC(=O)N1CCCN(C2CCc3ccc(F)cc32)CC1 (centres undefined) and report it. 3.93

Look up cytotoxicity at 10 µM: CC(Cc1ccco1)NC(=O)CSc1nnc[nH]1 (centres undefined) 13

What does the record list as cytotoxicity at 10 µM for Cn1cc(C(=O)N2CCCC2c2[nH]ncc2C(N)=O)cn1 (centres undefined) ? -7.05

Dear colleague, I am looking for the recorded cytotoxicity at 10 µM of the following compound: `COc1cccc2c3c(c(=O)[nH]c12)CCO3` 5.57

Tell me the measured cytotoxicity at 10 µM of `CN1CCC(Cc2noc(-c3cccc(OCC(N)=O)c3)n2)CC1` , please. -4.42

Please look up its cytotoxicity at 10 µM: `CC(C)Cn1cc(NC(=O)c2cccc(N(C)C)c2)cn1` 11.8

Fill in the blank: the reported cytotoxicity at 10 µM of Fc1cnc(N2CCCC3(CN(Cc4ccccc4)CCO3)C2)nc1 (centres undefined) is ____. 12.4

====

Measured cytotoxicity at 10 µM values are reported for all entries that follow.
Assay: Toxicity liver stage against HepG2, at 10uM
Type: cell-based
Design: test concentration 10 uM, cell line HepG2-A16-CD81EGFP
Details: human, HepG2-A16-CD81EGFP cells; read-out: INHIBITION
Entry rule: numbers only, all in %.

[[record]]
compound = "Cc1[nH]c(=O)c(C#N)cc1C(=O)N1C[C@@H](CN2CCCC2)C[C@H](CO)C1"
endpoint = "cytotoxicity at 10 µM"
recorded_measurement = -8.08


Which measured cytotoxicity at 10 µM value corresponds to `O=C(NC[C@]1(O)CN(Cc2ccc(F)cc2)C[C@H]1O)c1ccccn1` ? -7.8

Could you tell me which cytotoxicity at 10 µM is on file for CCc1cc(=O)[nH]c(-c2ccc(NC(C)COC)nc2)n1 (stereo not drawn) ? -146
